Test system: CCRF-CEM leukemia
Test: NCI tumour cell line growth inhibition, 48 h

| Molecule | TGI |
| --- | --- |
| C=CCNC1=C2C[C@@H](C)C[C@@H](OC)[C@H](OC(=O)CN(C)C)[C@H](C)/C=C(\C)[C@@H](OC(N)=O)[C@H](OC)/C=C\C=C(/C)C(=O)NC(=CC1=O)C2=O | > 59.3 µM |
| Nc1ccccc1NC(=O)c1ccc(CSc2nc(N3CCOCC3)c3cccn3n2)cc1 | > 100 µM |
| CCOC(=O)c1sc2nc(SC)nc(Nc3ccc4c(c3)OCCCO4)c2c1N | > 100 µM |
| O=c1c2cccnc2[nH]c2ccc3scnc3c12 | > 10 µM |
| CS(=O)(=O)c1nc(N)nc2nc[nH]c12 | > 100 µM |
| COc1cc2c(c(OC)c1OC)-c1ccc([O-])c(=O)cc1[C@@H](NC(C)=O)CC2.COc1cc2c(c(OC)c1OC)-c1ccc([O-])c(=O)cc1[C@@H](NC(C)=O)CC2.[Cu+2] | 19 µM |
| [N-]=[N+]=NC1(N=[N+]=[N-])C(=O)NN=C(c2ccccc2)C1=O (configuration not stated) | 83.9 µM |
